targetOrSystem: human GSK3α (Homo sapiens)
Construct: Full length human GSK3α or GSK3B expressed as N-terminal GST fusion proteins; GST (N); purchased Carna Biosciences (Japan); host or cells: baculovirus host
testName: In vitro enzymatic activity assay, GSK3α
Assay type: biochemical
measurementSetup: 1.0 mM ATP, 1.0 μM peptide substrate, 120 min, 25° C, read-out: Enzyme GSK3α (IC50)
measurementKind: pIC50
Units for pIC50: none; it is -log10 of a concentration expressed in mol/L.

Cc1cc(C)c(-n2cnc(N)c(C(=O)Nc3cncc(C4CCCCCN4)c3)c2=O)c(C)c1 (single isomer, unassigned) [Example 146]    8.11

Look up pIC50: COCc1cc(Cl)c(-n2cnc(N)c(C(=O)Nc3cncc([C@@H](C)N)c3)c2=O)c(Cl)c1 (single isomer, unassigned) [Example 66]
8.22

What value of measured pIC50 is listed for Nc1ncn(-c2c(Cl)cccc2Cl)c(=O)c1C(=O)Nc1cccc([C@H]2CC[C@H](CO)N2)c1 (single isomer, unassigned) [Example 191] ?
8.24

Requested field: pIC50. Item: CCC(N)c1cncc(NC(=O)c2c(N)ncn(-c3c(Cl)cncc3Cl)c2=O)c1 (single isomer, unassigned) [Example 153]
8.11

Please look up its pIC50: CN(C)c1cc(Cl)c(-n2cnc(N)c(C(=O)Nc3cncc([C@@H]4CCCCN4)c3)c2=O)c(Cl)c1 [Example 123]
8.32

Please report the recorded pIC50 for COc1cc(Cl)c(-n2cnc(N)c(C(=O)Nc3cncc([C@@H]4NC[C@H]5CCC[C@H]54)c3)c2=O)c(Cl)c1 (single isomer, unassigned) [Example 32] .
8.20

Query (molecule): Nc1ncn(-c2c(Cl)cc(OC(F)F)cc2Cl)c(=O)c1C(=O)Nc1cccc([C@@H]2CCCN2)c1 [Example 193] ; field requested: pIC50
8.04

* * *

The following molecules are shown together with reported IC50 values.
targetOrSystem: GSK3A (Homo sapiens)
Sequence (P49840 whole entry): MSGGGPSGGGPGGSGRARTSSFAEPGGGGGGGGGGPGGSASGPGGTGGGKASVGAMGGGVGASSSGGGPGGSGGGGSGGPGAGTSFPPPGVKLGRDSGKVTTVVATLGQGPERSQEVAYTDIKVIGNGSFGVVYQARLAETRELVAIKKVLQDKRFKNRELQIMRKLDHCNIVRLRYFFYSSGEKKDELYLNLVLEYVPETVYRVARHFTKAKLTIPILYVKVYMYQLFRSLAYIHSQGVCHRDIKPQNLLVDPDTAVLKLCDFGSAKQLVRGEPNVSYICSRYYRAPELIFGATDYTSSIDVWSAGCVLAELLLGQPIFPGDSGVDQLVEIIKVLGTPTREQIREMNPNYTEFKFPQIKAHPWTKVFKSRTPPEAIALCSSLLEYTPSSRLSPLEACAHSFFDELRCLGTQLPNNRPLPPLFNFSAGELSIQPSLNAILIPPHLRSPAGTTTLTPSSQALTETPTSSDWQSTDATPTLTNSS
testName: NanoBRET cellular target engagement assay, Nanoluc-GSK3A in HEK293 cells
measurementSetup: NanoBRET GSK3α IC50, HEK293 cells, tracer K-8, 2 hours, 37° C
Numeric only. Scale: nM

CNCc1cncc(NC(=O)c2c(N)ncn(-c3c(Cl)cc(C(F)CF)cc3Cl)c2=O)c1 (single isomer, unassigned) [Example 116]    1.8
Cc1cc(C(F)(F)F)cc(C)c1-n1cnc(N)c(C(=O)Nc2cncc(C3CCCC(C)N3)c2)c1=O (single isomer, unassigned)    6.5
CCOCc1cc(C)c(-n2cnc(N)c(C(=O)Nc3cncc(C(C)N)c3)c2=O)c(C)c1 (single isomer, unassigned)    5.3
COc1cc(Cl)c(-n2cnc(N)c(C(=O)Nc3cncc([C@@H](C)N)c3)c2=O)c(Cl)c1 (single isomer, unassigned)    6.6
COC[C@@H](N)c1cccc(NC(=O)c2c(N)ncn(-c3c(C)cc(OC)cc3Cl)c2=O)c1 (atropisomer, axis not shown)    3.6

Let's switch to this molecule now.
Dear colleague, I am looking for the recorded IC50 of the following molecule: COc1cc(Cl)c(-n2cnc(N)c(C(=O)Nc3cncc4c3CCC43CCCN3)c2=O)c(Cl)c1 (stereo not drawn)
1.4

* * *

targetOrSystem: human GSK3α (Homo sapiens, UniProt P49840)
Construct: Full length human GSK3α or GSK3B expressed as N-terminal GST fusion proteins; GST (N); purchased Carna Biosciences (Japan); host or cells: baculovirus host
testName: In vitro enzymatic activity assay, GSK3α
Assay type: biochemical
measurementSetup: 1.0 mM ATP, 1.0 μM peptide substrate, 120 min, 25° C, read-out: Enzyme GSK3α (IC50)
Where a name gives a salt, the structure may show the parent alone.
pIC50 listing for selected molecules.
API: returns pIC50 as number; meaning -log10 of concentration in mol/L.

COc1cc(Cl)c(-n2cnc(N)c(C(=O)Nc3cncc(C(N)CC(F)F)c3)c2=O)c(Cl)c1 (single isomer, unassigned) [Example 85]    8.03
CCNCc1cncc(NC(=O)c2c(N)ncn(-c3c(Cl)cc(COC)cc3Cl)c2=O)c1    8.19
Nc1ncn(-c2c(Cl)cccc2Cl)c(=O)c1C(=O)Nc1cccc(C2CCCN2)c1F (single isomer, unassigned) [Example 167]    7.34

Name the recorded pIC50 for Cc1cc(F)cc(C)c1-n1cnc(N)c(C(=O)Nc2cncc([C@H]3CCCCN3)c2)c1=O [Example 161, trifluoroacetate] .
8.14

* * *

targetOrSystem: GSK3A (Homo sapiens)
Construct: expressed in transfected cells
testName: NanoBRET cellular target engagement assay, Nanoluc-GSK3A in HEK293 cells
Assay type: cell-based
measurementSetup: NanoBRET GSK3α IC50, HEK293 cells, tracer K-8, 2 hours, 37° C
Procedure: In the assay, HEK293 cells stably expressing either Nanoluc-GSK3A or Nanoluc-GSK3B were maintained in culture media and seeded, using a multidrop dispenser, at a density of 5×10^3 cells per well in 384-well white plates with 100 ng/ml doxycycline (Sigma) overnight. Compound was first diluted in DMSO to generate a 9-point serial dilution then diluted to 10× final concentration in Opti-MEM™ (Gibco). […]
measurementKind: pIC50
pIC50 is a log-scale quantity: -log10 of the concentration expressed in molar.

Worked cases, answers included:
COCc1cc(C)c(-n2cnc(N)c(C(=O)Nc3cncc(C4CNC(=O)CN4)c3)c2=O)c(C)c1 (single isomer, unassigned) [Example 159]    7.11
COc1cc(Cl)c(-n2cnc(N)c(C(=O)Nc3cncc([C@H]4CCC[C@H](C)N4)c3)c2=O)c(Cl)c1 (single isomer, unassigned) [Example 84]    8.60

Now consider the entry below.
Form field: pIC50 recorded for COC[C@@H](N)c1cccc(NC(=O)c2c(N)ncn(-c3c(C)cc(C#N)cc3Cl)c2=O)c1 (atropisomer, axis not shown) with GSK3A (Homo sapiens) (enter value)
8.54

* * *

targetOrSystem: human GSK3α (Homo sapiens)
Construct: Full length human GSK3α or GSK3B expressed as N-terminal GST fusion proteins; GST (N); purchased Carna Biosciences (Japan); host or cells: baculovirus host
testName: In vitro enzymatic activity assay, GSK3α
Type: biochemical
measurementSetup: 1.0 mM ATP, 1.0 μM peptide substrate, 120 min, 25° C, read-out: Enzyme GSK3α (IC50)
measurementKind: IC50 (nM)
Record the value in nM, omitting the unit from your answer.

CCOc1cc(Cl)c(-n2cnc(N)c(C(=O)Nc3cncc(C4COCCCN4)c3)c2=O)c(Cl)c1 (single isomer, unassigned) [Example 135]    3.2
CCNCc1cncc(NC(=O)c2c(N)ncn(-c3c(Cl)cc(C(F)F)cc3Cl)c2=O)c1 [Example 14]    6.4

Quick check: IC50 of Nc1ncn(-c2c(Cl)cc(C(F)(F)F)cc2Cl)c(=O)c1C(=O)Nc1cncc([C@@H]2CCCCN2)c1 [Example 119] ?
8.1

Given COc1cc(C)c(-n2cnc(N)c(C(=O)Nc3cncc(C4CCCCCN4)c3)c2=O)c(C)c1 (single isomer, unassigned) [Example 53] , state its recorded IC50.
12.9

Can you share its IC50? I mean this compound: CO[C@H](C)c1cc(C)c(-n2cnc(N)c(C(=O)Nc3cncc([C@@H](C)N)c3)c2=O)c(C)c1 (single isomer, unassigned) [Example 174]
28

Given CNCCc1c(NC(=O)c2c(N)ncn(-c3c(C)cccc3Cl)c2=O)cccc1OC [Example 164] , state its recorded IC50.
29.4

* * *

targetOrSystem: GSK3A (Homo sapiens)
testName: NanoBRET cellular target engagement assay, Nanoluc-GSK3A in HEK293 cells
measurementSetup: NanoBRET GSK3α IC50, HEK293 cells, tracer K-8, 2 hours, 37° C
measurementKind: pIC50
The scale used: pIC50 is minus the common logarithm of the concentration in molar units.

Quick one: pIC50 of `Nc1ncn(-c2c(Cl)cc(C(F)F)cc2Cl)c(=O)c1C(=O)Nc1cccc([C@@H]2CCCN2)c1` ?
8.27

Endpoint output: pIC50 of `CCNCc1cncc(NC(=O)c2c(N)ncn(-c3c(Cl)cc(COC)cc3Cl)c2=O)c1` . Value?
8.52

pIC50 for CO[C@H](C)c1cc(C)c(-n2cnc(N)c(C(=O)Nc3cncc([C@@H](C)N)c3)c2=O)c(C)c1 (single isomer, unassigned) [Example 174] ?
8.06

Fill in: pIC50 of COc1cc(Cl)c(-n2cnc(N)c(C(=O)Nc3cncc(C(N)CC(F)F)c3)c2=O)c(Cl)c1 (single isomer, unassigned) [Example 82] is ___
8.40

Find the recorded pIC50 belonging to `Nc1ncn(-c2c(Cl)cc(C(F)(F)F)cc2Cl)c(=O)c1C(=O)Nc1cncc([C@@H]2CCCCN2)c1` and report it.
8.09

Please give the measured pIC50 for this molecule: CCOc1cc(C)c(-n2cnc(N)c(C(=O)Nc3cncc(C4CCCCCN4)c3)c2=O)c(C)c1 (single isomer, unassigned)
8.37

Quick check: pIC50 of CN[C@H](C)c1cccc(NC(=O)c2c(N)ncn(-c3c(C)cc(OC)cc3Cl)c2=O)c1 (atropisomer, axis not shown) ?
8.31

Return reported pIC50; argument: Cc1cc(C#N)cc(Cl)c1-n1cnc(N)c(C(=O)Nc2cccc([C@@H]3CCCCN3)c2)c1=O (single isomer, unassigned)
8.23
